Target: Choline kinase alpha (Homo sapiens, UniProt P35790)
Sequence (P35790 whole entry): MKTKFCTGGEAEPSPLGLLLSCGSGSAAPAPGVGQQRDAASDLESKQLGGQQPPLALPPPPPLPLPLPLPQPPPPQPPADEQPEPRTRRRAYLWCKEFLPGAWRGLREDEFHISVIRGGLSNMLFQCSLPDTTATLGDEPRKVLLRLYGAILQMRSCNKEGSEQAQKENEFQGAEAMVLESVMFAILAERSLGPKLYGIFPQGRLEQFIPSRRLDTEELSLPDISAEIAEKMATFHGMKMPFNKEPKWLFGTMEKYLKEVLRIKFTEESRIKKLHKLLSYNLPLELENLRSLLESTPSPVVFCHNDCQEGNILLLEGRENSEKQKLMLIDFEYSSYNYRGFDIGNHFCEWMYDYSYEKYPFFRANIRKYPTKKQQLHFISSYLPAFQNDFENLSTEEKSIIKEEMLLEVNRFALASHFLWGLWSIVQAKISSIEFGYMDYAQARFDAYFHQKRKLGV
Assay: Inhibition of recombinant human Choline kinase alpha using [methyl-14C]choline chloride as substrate after 30 mins by autoradiography
The following compounds are listed with their measured pIC50 values.
Please treat pIC50 as minus the base-10 logarithm of the molar concentration.

Here is how some compounds turned out for pIC50.
# SMILES INPUT, ASSAY METRIC, MEASURED NUMBER
rows = [
    ("FC(F)(F)C(F)(F)c1oc(-c2ccc(C(c3ccc(-c4nc(-c5cc[n+](CCCl)cc5)c(C(F)(F)C(F)(F)F)o4)cc3)(C(F)(F)F)C(F)(F)F)cc2)nc1-c1cc[n+](CCCl)cc1", "pIC50", 4.85),
    ("CN(C)C(=O)C[n+]1ccc(-c2nc(-c3ccc(-c4ccc(-c5nc(-c6cc[n+](CC(=O)N(C)C)cc6)c(C(F)(F)C(F)(F)C(F)(F)F)o5)cc4)cc3)oc2C(F)(F)C(F)(F)C(F)(F)F)cc1", "pIC50", 5.37),
    ("OCC[n+]1ccc(-c2nc(-c3ccc(-c4ccc(-c5nc(-c6cc[n+](CCO)cc6)c(C(F)(F)F)o5)cc4)cc3)oc2C(F)(F)F)cc1", "pIC50", 4.62),
]

For FC(F)(F)c1oc(-c2ccc(C(c3ccc(-c4nc(-c5cc[n+](CCCl)cc5)c(C(F)(F)F)o4)cc3)(C(F)(F)F)C(F)(F)F)cc2)nc1-c1cc[n+](CCCl)cc1 the compound record lists pIC50 as 4.90

Item: OCC[n+]1ccc(-c2nc(-c3ccc(-c4ccc(-c5nc(-c6cc[n+](CCO)cc6)c(C(F)(F)C(F)(F)C(F)(F)F)o5)cc4)cc3)oc2C(F)(F)C(F)(F)C(F)(F)F)cc1 | pIC50: 4.76

###

Catalogue of compounds with associated IC50
Target: Choline kinase alpha (Homo sapiens)
Experiment: Inhibition of recombinant human Choline kinase alpha using [methyl-14C]choline chloride as substrate after 30 mins by autoradiography
Value expressed in µM; do not type the unit.

Record excerpt, results attached:
# SMILES INPUT, ASSAY METRIC, MEASURED NUMBER
measured = [
    ("OCC[n+]1ccc(-c2nc(-c3ccc(-c4ccc(-c5nc(-c6cc[n+](CCO)cc6)c(C(F)(F)C(F)(F)F)o5)cc4)cc3)oc2C(F)(F)C(F)(F)F)cc1", "IC50", 9.65),
    ("CN(C)C(=O)C[n+]1ccc(-c2nc(-c3ccc(C(c4ccc(-c5nc(-c6cc[n+](CC(=O)N(C)C)cc6)c(C(F)(F)F)o5)cc4)(C(F)(F)F)C(F)(F)F)cc3)oc2C(F)(F)F)cc1", "IC50", 6.15),
    ("CN(C)C(=O)C[n+]1ccc(-c2nc(-c3ccc(-c4nc(-c5cc[n+](CC(=O)N(C)C)cc5)c(C(F)(F)F)o4)cc3)oc2C(F)(F)F)cc1", "IC50", 1.35),
    ("OCC[n+]1ccc(-c2nc(-c3ccc(C(c4ccc(-c5nc(-c6cc[n+](CCO)cc6)c(C(F)(F)C(F)(F)C(F)(F)F)o5)cc4)(C(F)(F)F)C(F)(F)F)cc3)oc2C(F)(F)C(F)(F)C(F)(F)F)cc1", "IC50", 13.5),
    ("FC(F)(F)C(F)(F)C(F)(F)c1oc(-c2ccc(C(c3ccc(-c4nc(-c5cc[n+](CCCl)cc5)c(C(F)(F)C(F)(F)C(F)(F)F)o4)cc3)(C(F)(F)F)C(F)(F)F)cc2)nc1-c1cc[n+](CCCl)cc1", "IC50", 11.6),
]

Lookup result for CN(C)C(=O)C[n+]1ccc(-c2nc(-c3ccc(-c4nc(-c5cc[n+](CC(=O)N(C)C)cc5)c(C(F)(F)C(F)(F)F)o4)cc3)oc2C(F)(F)C(F)(F)F)cc1 ; measured IC50: 15

Item: CN(C)C(=O)C[n+]1ccc(-c2nc(-c3ccc(-c4ccc(-c5nc(-c6cc[n+](CC(=O)N(C)C)cc6)c(C(F)(F)C(F)(F)F)o5)cc4)cc3)oc2C(F)(F)C(F)(F)F)cc1 | IC50: 2

IC50 reported for this compound CN(C)C(=O)C[n+]1ccc(-c2nc(-c3ccc(-c4ccc(-c5nc(-c6cc[n+](CC(=O)N(C)C)cc6)c(C(F)(F)F)o5)cc4)cc3)oc2C(F)(F)F)cc1 : 0.3

###

System: HT-29
Test: Cytotoxicity against human HT-29 cells after 72 hrs by MTT assay
Format: functional, cell-based
Details: Homo sapiens, HT-29, 72 h
ASSAY METRIC: pIC50
pIC50 here: minus log base 10 of the concentration, concentration in moles per litre.

These solved cases illustrate the format of a correct answer.
# SMILES INPUT, pIC50
measured = [
    ("FC(F)(F)c1oc(-c2ccc(C(c3ccc(-c4nc(-c5cc[n+](CCCl)cc5)c(C(F)(F)F)o4)cc3)(C(F)(F)F)C(F)(F)F)cc2)nc1-c1cc[n+](CCCl)cc1", 4.86),
    ("CN(C)C(=O)C[n+]1ccc(-c2nc(-c3ccc(-c4ccc(-c5nc(-c6cc[n+](CC(=O)N(C)C)cc6)c(C(F)(F)F)o5)cc4)cc3)oc2C(F)(F)F)cc1", 5.40),
    ("FC(F)(F)C(F)(F)c1oc(-c2ccc(C(c3ccc(-c4nc(-c5cc[n+](CCCl)cc5)c(C(F)(F)C(F)(F)F)o4)cc3)(C(F)(F)F)C(F)(F)F)cc2)nc1-c1cc[n+](CCCl)cc1", 5.03),
]

// switching to the query compound
// field: pIC50; key: FC(F)(F)C(F)(F)C(F)(F)c1oc(-c2ccc(C(c3ccc(-c4nc(-c5cc[n+](CCCl)cc5)c(C(F)(F)C(F)(F)C(F)(F)F)o4)cc3)(C(F)(F)F)C(F)(F)F)cc2)nc1-c1cc[n+](CCCl)cc1 ; value = 4.81

###

Molecular target: Choline kinase alpha (Homo sapiens)
Assay: Inhibition of recombinant human Choline kinase alpha using [methyl-14C]choline chloride as substrate after 30 mins by autoradiography
ASSAY METRIC: IC50

Lab book: IC50 of OCC[n+]1ccc(-c2nc(-c3ccc(-c4ccc(-c5nc(-c6cc[n+](CCO)cc6)c(C(F)(F)F)o5)cc4)cc3)oc2C(F)(F)F)cc1 noted as > 20 µM

###

Each record here notes measured IC50.
Test system: HT-29
Assay: Cytotoxicity against human HT-29 cells after 72 hrs by MTT assay
Type: functional, cell-based
Settings: Homo sapiens, HT-29, 72 h
The response must be a number in µM with no trailing unit.

# SMILES INPUT, IC50 (µM)
rows = [
    ("OCC[n+]1ccc(-c2nc(-c3ccc(C(c4ccc(-c5nc(-c6cc[n+](CCO)cc6)c(C(F)(F)C(F)(F)C(F)(F)F)o5)cc4)(C(F)(F)F)C(F)(F)F)cc3)oc2C(F)(F)C(F)(F)C(F)(F)F)cc1", 6.35),
    ("OCC[n+]1ccc(-c2nc(-c3ccc(-c4ccc(-c5nc(-c6cc[n+](CCO)cc6)c(C(F)(F)C(F)(F)C(F)(F)F)o5)cc4)cc3)oc2C(F)(F)C(F)(F)C(F)(F)F)cc1", 2.26),
]

The reported IC50 value, HT-29, for OCC[n+]1ccc(-c2nc(-c3ccc(C(c4ccc(-c5nc(-c6cc[n+](CCO)cc6)c(C(F)(F)C(F)(F)F)o5)cc4)(C(F)(F)F)C(F)(F)F)cc3)oc2C(F)(F)C(F)(F)F)cc1 reads 6

Known value: HT-29 IC50 of the molecule OCC[n+]1ccc(-c2nc(-c3ccc(-c4ccc(-c5nc(-c6cc[n+](CCO)cc6)c(C(F)(F)F)o5)cc4)cc3)oc2C(F)(F)F)cc1 equals 1.5

HT-29 IC50 of CN(C)C(=O)C[n+]1ccc(-c2nc(-c3ccc(-c4ccc(-c5nc(-c6cc[n+](CC(=O)N(C)C)cc6)c(C(F)(F)C(F)(F)C(F)(F)F)o5)cc4)cc3)oc2C(F)(F)C(F)(F)C(F)(F)F)cc1 is 2.5

GET /values?item= OCC[n+]1ccc(-c2nc(-c3ccc(-c4ccc(-c5nc(-c6cc[n+](CCO)cc6)c(C(F)(F)C(F)(F)F)o5)cc4)cc3)oc2C(F)(F)C(F)(F)F)cc1 &system= HT-29 returns IC50: 0.84

###

Listing of entries alongside the reported pIC50.
Tested on: HT-29
Experiment: Cytotoxicity against human HT-29 cells after 72 hrs by MTT assay
Assay type: functional, cell-based
Details: Homo sapiens, HT-29, 72 h
pIC50: −log10 of the molar value.

# SMILES INPUT, pIC50
rows = [
    ("CN(C)C(=O)C[n+]1ccc(-c2nc(-c3ccc(-c4nc(-c5cc[n+](CC(=O)N(C)C)cc5)c(C(F)(F)C(F)(F)F)o4)cc3)oc2C(F)(F)C(F)(F)F)cc1", "< 4.30"),
    ("CN(C)C(=O)C[n+]1ccc(-c2nc(-c3ccc(C(c4ccc(-c5nc(-c6cc[n+](CC(=O)N(C)C)cc6)c(C(F)(F)F)o5)cc4)(C(F)(F)F)C(F)(F)F)cc3)oc2C(F)(F)F)cc1", "< 4.70"),
]

Below: the item to evaluate.
The molecule listed as CN(C)C(=O)C[n+]1ccc(-c2nc(-c3ccc(-c4nc(-c5cc[n+](CC(=O)N(C)C)cc5)c(C(F)(F)F)o4)cc3)oc2C(F)(F)F)cc1 has a reported pIC50 of < 4.30
